Taken from the RNAGym collection of RNA variant scans (doi:10.7554/elife.80360).

B1: CPEB3 Ribozyme (parent)
chain: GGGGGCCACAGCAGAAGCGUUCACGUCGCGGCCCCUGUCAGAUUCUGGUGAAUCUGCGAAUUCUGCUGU

Variants of: B1
Experiment: self-cleavage, relative activity (ratio to wild type); higher = more cleavage; co-transcriptional
Class t: self-cleavage at least 0.5. Class f: self-cleavage below 0.5.

Use the examples below as a reference point.
stdin: Does self-cleavage meet or surpass 0.5 for U38G G48C ?
stdout: f

stdin: Does self-cleavage meet or surpass 0.5 for G19C A51C ?
stdout: f

stdin: Does self-cleavage meet or surpass 0.5 for G30C U43C ?
stdout: t

stdin: Does self-cleavage meet or surpass 0.5 for C6A G47U ?
stdout: t

stdin: Does self-cleavage meet or surpass 0.5 for A13G C33G ?
stdout: t

---
stdin: Does self-cleavage meet or surpass 0.5 for C6A G28C ?
stdout: f

stdin: Does self-cleavage meet or surpass 0.5 for G50C A52C ?
stdout: t

stdin: Does self-cleavage meet or surpass 0.5 for C18G G68C ?
stdout: f

stdin: Does self-cleavage meet or surpass 0.5 for A16C A60G ?
stdout: f

stdin: Does self-cleavage meet or surpass 0.5 for C6A A59G ?
stdout: f

stdin: Does self-cleavage meet or surpass 0.5 for G30U A51C ?
stdout: f
